Assay: Solubility of compound in saline at 100 uM at pH 7.4 by HPLC analysis
Assay type: physicochemical
Settings: saline, pH 7.4
value-type: solubility at 100 µM (µg/mL)
Output spec: scalar in µg/mL, unitless text.

Exam item: Param item = COC(=O)[C@@H](N)CCC(=O)Nc1ccc(COC2=C(C#N)[C@H](O)[C@]3(C)C4=CC(=O)[C@@H]5[C@@H]6CC(C)(C)CC[C@]6(C(=O)OC)CC[C@@]5(C)[C@]4(C)CC[C@H]3C2(C)C)cc1 ; retrieve measured solubility at 100 µM.
Marked response: 8.9

---

Assay: Drug level in Sprague-Dawley rat heart at 20 mg/kg, ip measured at 90 mins by LC-MS/MS analysis
Type: ADME, organism-based
Details: read-out: Drug uptake
value-type: concentration at 1.5 h (ng/g)
The answer is to be given in ng/g; state only the numeric part.

Exam item: Given the molecule COC(=O)[C@]12CCC(C)(C)C[C@H]1[C@H]1C(=O)C=C3[C@@]4(C)C=C(C#N)C(=O)C(C)(C)[C@@H]4CC[C@@]3(C)[C@]1(C)CC2 , what is its reported concentration at 1.5 h?
Marked response: 1580

---

Assay: Drug level in Sprague-Dawley rat liver at 20 mg/kg, ip measured at 90 mins by LC-MS/MS analysis
Type: ADME, organism-based
Settings: read-out: Drug uptake
value-type: concentration at 1.5 h (ng/g)
Your answer should be a plain number; it is taken to be in ng/g.

Exam item: Name the recorded concentration at 1.5 h for COC(=O)[C@]12CCC(C)(C)C[C@H]1[C@H]1C(=O)C=C3[C@@]4(C)C=C(C#N)C(=O)C(C)(C)[C@@H]4CC[C@@]3(C)[C@]1(C)CC2 [BARDOXOLONE METHYL] .
Marked response: 1550

---

Assay: Drug level in Sprague-Dawley rat kidney at 20 mg/kg, ip measured at 90 mins by LC-MS/MS analysis
Format: ADME, organism-based
Settings: read-out: Drug uptake
value-type: concentration at 1.5 h (ng/g)
Enter your answer as a number in ng/g; do not include the unit.

Exam item: What value of measured concentration at 1.5 h is listed for COC(=O)[C@]12CCC(C)(C)C[C@H]1[C@H]1C(=O)C=C3[C@@]4(C)C=C(C#N)C(=O)C(C)(C)[C@@H]4CC[C@@]3(C)[C@]1(C)CC2 ?
Marked response: 4520
